target: Growth hormone secretagogue receptor type 1 (Homo sapiens, UniProt Q92847); experiment: Binding affinity towards human Growth hormone secretagogue receptor type 1 using competitive binding assay with radiolabeled [35S]-MK-0677 expressed as IC50
Sequence (Q92847 whole entry): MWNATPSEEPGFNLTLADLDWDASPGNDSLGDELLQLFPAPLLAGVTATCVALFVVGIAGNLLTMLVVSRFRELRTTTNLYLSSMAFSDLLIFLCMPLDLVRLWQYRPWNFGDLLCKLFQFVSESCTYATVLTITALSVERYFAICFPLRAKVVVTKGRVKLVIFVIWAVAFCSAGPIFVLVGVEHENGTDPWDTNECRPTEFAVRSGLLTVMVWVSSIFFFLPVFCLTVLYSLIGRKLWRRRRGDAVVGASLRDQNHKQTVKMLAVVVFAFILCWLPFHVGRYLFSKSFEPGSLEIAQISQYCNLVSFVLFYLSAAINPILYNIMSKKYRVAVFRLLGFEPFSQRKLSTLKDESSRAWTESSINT
pIC50: −log10 of the molar value. Residues, ends and D or L forms follow the SMILES beside them. *: point of attachment. Octanoyl = CCCCCCCC(=O)*
observable: pIC50

Guide cases for pIC50, answers given:
compound=CCCCCCCC(=O)OC[C@H](NC(=O)C(C)(C)N)C(=O)N1CCC2(CC1)CN(S(C)(=O)=O)c1ccccc12 value=6.23
compound=CS(=O)(=O)N1CC2(CCN(C(=O)[C@@H](COCc3ccccc3)NC(=O)[C@H](CO)NC(=O)CN)CC2)c2ccccc21 value=7.44

[P] CCCCCCCC(=O)OC[C@H](NC(=O)[C@H](CO)NC(=O)CN)C(=O)N1CCC2(CC1)CN(S(C)(=O)=O)c1ccccc12
[Q] CS(=O)(=O)N1CC2(CCN(C(=O)[C@@H](COCc3ccccc3)NC(=O)[C@@H](N)CO)CC2)c2ccccc21
Would you kindly point out which of P and Q has the smaller pIC50 figure? Reply briefly: the label of your chosen item.
P

[A] CCCCCCCC(=O)OC[C@H](NC(=O)CN)C(=O)N[C@@H](CO)C(=O)N[C@@H](Cc1ccccc1)C(=O)O (H-GS(Octanoyl)SF-OH)
[B] CCCCCCCC(=O)OC[C@@H](NC(=O)C(C)(C)N)C(=O)N1CCC2(CC1)CN(S(C)(=O)=O)c1ccccc12
Would you kindly point out which of A and B has the smaller pIC50 figure? Reply briefly: the label of your chosen item.
A

[P] CCCCCCCC(=O)OC[C@@H](NC(=O)[C@@H](N)CO)C(=O)N1CCC2(CC1)CN(S(C)(=O)=O)c1ccccc12
[Q] CCCCCCCC(=O)OC[C@@H](NC(=O)[C@H](CO)NC(=O)CN)C(=O)N1CCC2(CC1)CN(S(C)(=O)=O)c1ccccc12
Quick check, higher pIC50 between P and Q ? Reply briefly: the label of your chosen item.
Q
